- TARGET OF ASSAY: T1, Human SIRPαV1 (NP_542970.1), Extracellular Domain + His-Tag (human, UniProt P78324 31-373)
- T1 construct: also called huSIRPαV1; hSIRPαV1; not shown: His-Tag
- T1 sequence (P78324 other isoform, or with tags, fused parts or gaps): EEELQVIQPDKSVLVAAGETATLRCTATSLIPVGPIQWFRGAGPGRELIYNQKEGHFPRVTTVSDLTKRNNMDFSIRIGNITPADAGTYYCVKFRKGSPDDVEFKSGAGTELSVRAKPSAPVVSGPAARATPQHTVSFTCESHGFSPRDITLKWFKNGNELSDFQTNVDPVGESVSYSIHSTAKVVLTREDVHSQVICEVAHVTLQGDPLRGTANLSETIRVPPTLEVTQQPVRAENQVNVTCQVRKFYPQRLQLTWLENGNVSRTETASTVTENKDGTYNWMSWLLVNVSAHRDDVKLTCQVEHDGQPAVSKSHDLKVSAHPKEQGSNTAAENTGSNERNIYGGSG
- TEST METHOD NOTES: SPR, antibody captured on Protein A/G, ECD-His analyte, 1:1 fit
Listed next: entries and their corresponding koff.
The reply should be a number in s⁻¹, with the unit left off.

In: Bench note: what koff did Antibody E5 (antibody, human IgG1, kappa, L234A L235A, V domains shown) VH: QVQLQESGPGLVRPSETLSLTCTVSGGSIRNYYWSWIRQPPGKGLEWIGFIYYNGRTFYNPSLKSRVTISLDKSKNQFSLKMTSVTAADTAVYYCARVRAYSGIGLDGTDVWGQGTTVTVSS VL: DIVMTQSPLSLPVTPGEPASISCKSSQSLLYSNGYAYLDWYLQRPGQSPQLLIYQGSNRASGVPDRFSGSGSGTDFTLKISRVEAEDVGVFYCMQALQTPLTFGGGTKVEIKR show?
Out: 0.000336

In: Next binder: Antibody E4 (antibody, human IgG1, kappa, L234A L235A, V domains shown) VH: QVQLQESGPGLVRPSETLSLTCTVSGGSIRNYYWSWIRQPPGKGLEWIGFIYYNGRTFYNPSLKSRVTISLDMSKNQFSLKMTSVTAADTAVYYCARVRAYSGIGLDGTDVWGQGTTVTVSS VL: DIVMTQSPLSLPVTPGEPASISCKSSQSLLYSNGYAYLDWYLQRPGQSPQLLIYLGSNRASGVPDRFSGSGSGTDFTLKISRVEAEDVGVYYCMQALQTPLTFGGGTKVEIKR
Out: 0.000433

In: Next binder: Antibody E8 (antibody, human IgG1, kappa, L234A L235A, V domains shown) VH: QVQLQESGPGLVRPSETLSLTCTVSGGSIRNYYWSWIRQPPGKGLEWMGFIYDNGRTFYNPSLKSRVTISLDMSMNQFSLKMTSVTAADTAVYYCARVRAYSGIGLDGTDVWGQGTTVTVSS VL: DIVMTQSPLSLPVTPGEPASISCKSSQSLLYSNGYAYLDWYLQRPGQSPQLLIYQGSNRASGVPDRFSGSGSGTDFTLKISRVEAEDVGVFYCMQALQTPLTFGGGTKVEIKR
Out: 0.00039

In: Next binder: Antibody A16 (antibody, human IgG1, kappa, L234A L235A, V domains shown) VH: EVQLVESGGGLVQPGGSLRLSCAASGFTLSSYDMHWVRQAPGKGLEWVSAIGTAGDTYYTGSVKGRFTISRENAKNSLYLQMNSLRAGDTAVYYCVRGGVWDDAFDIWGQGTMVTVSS VL: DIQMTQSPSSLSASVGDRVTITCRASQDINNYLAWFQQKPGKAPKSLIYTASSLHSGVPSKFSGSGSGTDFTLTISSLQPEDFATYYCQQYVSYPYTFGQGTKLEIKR
Out: 0.00377

In: Next binder: Antibody E6 (antibody, human IgG1, kappa, L234A L235A, V domains shown) VH: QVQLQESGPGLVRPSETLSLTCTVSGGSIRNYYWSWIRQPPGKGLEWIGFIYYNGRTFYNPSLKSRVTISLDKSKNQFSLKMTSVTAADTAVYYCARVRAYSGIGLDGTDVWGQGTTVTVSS VL: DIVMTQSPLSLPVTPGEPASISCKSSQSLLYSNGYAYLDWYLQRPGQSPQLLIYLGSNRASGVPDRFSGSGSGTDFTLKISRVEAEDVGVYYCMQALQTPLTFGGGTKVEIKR
Out: 0.000386

In: Next binder: Antibody A9 (antibody, human IgG1, kappa, L234A L235A, V domains shown) VH: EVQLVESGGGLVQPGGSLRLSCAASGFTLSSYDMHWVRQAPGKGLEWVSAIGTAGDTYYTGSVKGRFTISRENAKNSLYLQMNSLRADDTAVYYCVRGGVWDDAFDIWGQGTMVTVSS VL: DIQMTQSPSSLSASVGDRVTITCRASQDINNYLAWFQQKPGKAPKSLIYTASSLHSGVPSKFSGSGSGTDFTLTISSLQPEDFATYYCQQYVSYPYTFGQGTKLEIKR
Out: 0.00363

In: Next binder: Antibody E19 (antibody, human IgG1, kappa, L234A L235A, V domains shown) VH: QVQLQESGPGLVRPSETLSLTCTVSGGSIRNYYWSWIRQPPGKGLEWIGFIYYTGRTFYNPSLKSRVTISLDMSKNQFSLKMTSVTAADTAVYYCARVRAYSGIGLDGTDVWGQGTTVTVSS VL: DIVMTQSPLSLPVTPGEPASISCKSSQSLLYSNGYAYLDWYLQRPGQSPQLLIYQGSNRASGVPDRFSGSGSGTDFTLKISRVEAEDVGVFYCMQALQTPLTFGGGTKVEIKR
Out: 0.000843
